All figures here come from patent US12065443B2.

biological target: SIK3 (Homo sapiens, UniProt Q9Y2K2); construct: purchased SignalChem S12-11G-100; test: biochemical
Sequence (Q9Y2K2 whole entry): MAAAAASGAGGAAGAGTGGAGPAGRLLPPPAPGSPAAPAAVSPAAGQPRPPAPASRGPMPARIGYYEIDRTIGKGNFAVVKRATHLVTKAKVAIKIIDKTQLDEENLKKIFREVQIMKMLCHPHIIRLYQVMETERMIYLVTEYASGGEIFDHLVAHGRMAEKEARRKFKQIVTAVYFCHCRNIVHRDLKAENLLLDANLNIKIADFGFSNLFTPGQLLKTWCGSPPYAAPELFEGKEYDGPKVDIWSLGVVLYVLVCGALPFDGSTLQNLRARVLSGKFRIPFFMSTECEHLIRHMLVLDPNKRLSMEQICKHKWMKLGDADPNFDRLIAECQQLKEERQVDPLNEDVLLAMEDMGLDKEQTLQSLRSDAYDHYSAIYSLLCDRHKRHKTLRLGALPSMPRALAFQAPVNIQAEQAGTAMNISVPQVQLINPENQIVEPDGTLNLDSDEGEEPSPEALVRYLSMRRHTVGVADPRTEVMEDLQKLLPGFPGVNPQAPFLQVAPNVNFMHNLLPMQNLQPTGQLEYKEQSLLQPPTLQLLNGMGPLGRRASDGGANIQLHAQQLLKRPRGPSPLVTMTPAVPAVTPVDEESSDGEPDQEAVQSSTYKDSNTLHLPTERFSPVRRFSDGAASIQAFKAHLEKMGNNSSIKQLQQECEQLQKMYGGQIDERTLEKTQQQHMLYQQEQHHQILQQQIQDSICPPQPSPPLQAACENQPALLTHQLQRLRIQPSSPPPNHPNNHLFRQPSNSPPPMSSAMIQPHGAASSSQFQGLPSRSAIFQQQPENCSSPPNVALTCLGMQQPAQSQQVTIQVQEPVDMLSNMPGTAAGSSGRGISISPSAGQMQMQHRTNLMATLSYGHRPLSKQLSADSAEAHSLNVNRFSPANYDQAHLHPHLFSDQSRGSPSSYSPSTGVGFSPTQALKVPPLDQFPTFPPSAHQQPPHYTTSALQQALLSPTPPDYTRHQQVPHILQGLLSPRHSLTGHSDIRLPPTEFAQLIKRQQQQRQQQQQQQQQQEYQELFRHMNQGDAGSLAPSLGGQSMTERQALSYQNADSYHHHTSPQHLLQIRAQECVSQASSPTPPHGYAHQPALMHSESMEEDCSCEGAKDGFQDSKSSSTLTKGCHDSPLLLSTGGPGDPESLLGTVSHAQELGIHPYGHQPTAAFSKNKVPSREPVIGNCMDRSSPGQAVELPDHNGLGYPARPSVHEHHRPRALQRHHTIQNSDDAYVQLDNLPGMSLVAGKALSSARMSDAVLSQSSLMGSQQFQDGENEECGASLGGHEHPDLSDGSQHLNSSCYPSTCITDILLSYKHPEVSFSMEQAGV
test_readout: IC50

// below: answered compounds
> print(dat)
                                    compound         result
 1  CCC1(O)CN(C(=O)c2c(OC)cc(-n3cnc4cc(-c5cnn(C)c5)ccc43)cc2OC)C1 [compound 218]  100 to 500 nM
 2  COc1cc(-n2cnc3cc(-c4cnn(C)c4)ccc32)cc(OC)c1C(=O)NC1CCCCC1OC (stereo not shown) [compound 161]       > 500 nM
 3  COc1cc(-c2cnc3cc(-c4cnnc(C)c4)ccn23)cc(OC)c1C(=O)NCC(F)(F)F [compound 252]  0.01 to 10 nM
 4  CCNC(=O)c1c(OC)cc(-n2cnc3cc(-c4ccc(N5CCOCC5)nc4)ccc32)cc1OC [compound 3]   10 to 100 nM
 5  COc1cc(-n2cnc3cc(-c4cnn(CCO)c4)ccc32)cc(OC)c1C(=O)NCC(F)(F)F [compound 33]  0.01 to 10 nM
 6  COc1cc(-n2cnc3cc(-c4cnn(C5CCN(C)CC5)c4)ccc32)cc(OC)c1C(=O)NCC(F)(F)F [Cpd 46]  0.01 to 10 nM
 7  COc1cc(-n2cnc3cc(-n4cnc(C)c4)ccc32)cc(OC)c1C(=O)NCC(F)(F)F [Cpd 155]   10 to 100 nM
 8  COc1cc(-n2cnc3cc(-c4cnn(C)c4)ccc32)cc(OC)c1C(=O)NCc1ccn(C)n1 [compound 61]       > 500 nM
 9  COc1cc(-n2cnc3cc(-c4cnn(C(C)C)c4)ccc32)cc(OC)c1C(=O)NCC(F)(F)F [compound 95]  0.01 to 10 nM
10  COc1cc(-n2cnc3cc(-c4nnc(C)[nH]4)ccc32)cc(OC)c1C(=O)NCC(F)(F)F [Cpd 127]  100 to 500 nM

IN: Supply IC50 value. Item: COc1cc(-n2cnc3cc(-c4c[nH]cn4)ccc32)cc(OC)c1C(=O)NCC(F)(F)F [compound 153]
OUT: 10 to 100 nM

IN: Tell me measured IC50 for COc1cc(-n2cnc3cc(-c4cnn(C)c4)ccc32)cc(OC)c1C(=O)N1CC(OC)C1 [compound 190] please.
OUT: 100 to 500 nM

IN: Supply measured IC50 of COc1cncc(-c2ccn3c(-c4cc(OC)c(C(=O)NCC(F)(F)F)c(OC)c4)cnc3c2)c1 [compound 245] in your reply.
OUT: 0.01 to 10 nM

IN: Tell us which IC50 value is on record for COc1cc(-c2cnc3cc(-c4cnn(C)c4)ccn23)cc(OC)c1C(=O)N1CC(C(F)(F)F)C1 [compound 213]
OUT: 0.01 to 10 nM

IN: For the compound COc1cc(-n2cnc3cc(-c4ccc(N(C)C)nc4)ccc32)cc(OC)c1C(=O)NCC(F)(F)F [compound 37] , give its reported IC50.
OUT: 100 to 500 nM

IN: Could you please provide reported IC50 for COc1ccc(-c2ccn3c(-c4cc(OC)c(C(=O)NCC(F)(F)F)c(OC)c4)cnc3c2)cn1 [compound 239] ? Thanks!
OUT: 0.01 to 10 nM
